In this section, each of the compounds is paired with its reported Tmax.
# ASSAY NOTES: in vivo
# ASSAY CONTEXT: mouse, brain
Provide only the numeric value, understood in min.

COMPOUND: O=C1CCc2ccc(OCCCCN3CCCN(c4cccc(Cl)c4Cl)CC3)nc2N1
Tmax / min: 15

The record that follows has no Tmax shown yet.
Q. What Tmax value was documented for this compound, O=C1CCc2ccc(OCCCCN3CCN(c4cccc(Cl)c4Cl)CC3)cc2N1 [Aripiprazole, aripiprazole, reference compound] ?
A. 30

====

# ASSAY NOTES: in vivo
# ASSAY CONTEXT: mouse, brain
Quick list: AUC(0-inf) per entry.
Express your answer in ng·h/mL, writing the number without its unit.

COMPOUND: O=C1CCc2ccc(OCCCCN3CCN(c4cccc(Cl)c4Cl)CC3)cc2N1 [Aripiprazole, aripiprazole, reference compound]
VALUE UNIT: ng·h/mL
AUC(0-inf): 1180

As a next step, examine the compound that follows.
Q. Which AUC(0-inf) is reported for this compound? O=C1CCc2ccc(OCCCCN3CCCN(c4cccc(Cl)c4Cl)CC3)nc2N1 [Compound 3]
A. 329

====

# TARGET DESC: 5HT1A (Homo sapiens (Human), UniProt P08908)
# ASSAY NOTES: 5HT1A cAMP biosensor
# Assay type: cell-based
# ASSAY CONTEXT: read-out: 5HT1A/cAMP (EC50)
MEASUREMENT TYPE: EC50 (nM)
Report the value in nM with no unit label.

COMPOUND: O=C1CCc2ccc(OCCCCN3CCCN(c4cccc(Cl)c4Cl)CC3)cc2N1 [Compound 2]
EC50 / nM: 2500

Please turn your attention to the following entry.
Q. Requested read-out EC50, target or system 5HT1A (Homo sapiens (Human), UniProt P08908), entry O=C1CCc2ccc(OCCCCN3CCCN(c4cccc(Cl)c4Cl)CC3)nc2N1 [Compound 3]
A. 1800

====

# TARGET DESC: hD2 receptors (Homo sapiens (Human), UniProt P14416)
# Sequence (P14416 whole entry): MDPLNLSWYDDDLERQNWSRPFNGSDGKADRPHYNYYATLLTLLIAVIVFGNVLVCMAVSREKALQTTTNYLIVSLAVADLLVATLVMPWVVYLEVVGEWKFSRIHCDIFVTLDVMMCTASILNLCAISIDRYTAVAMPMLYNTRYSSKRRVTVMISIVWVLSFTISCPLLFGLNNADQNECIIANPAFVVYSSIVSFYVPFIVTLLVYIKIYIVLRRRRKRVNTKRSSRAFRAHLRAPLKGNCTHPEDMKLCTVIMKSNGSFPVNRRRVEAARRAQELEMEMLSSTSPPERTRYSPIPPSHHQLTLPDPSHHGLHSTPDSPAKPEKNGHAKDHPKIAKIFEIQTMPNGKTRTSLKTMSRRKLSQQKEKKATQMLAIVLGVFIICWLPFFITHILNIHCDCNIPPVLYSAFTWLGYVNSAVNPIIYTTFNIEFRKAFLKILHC
# ASSAY NOTES: D2 mediated cAMP GloSensor assay
# Assay type: cell-based
# ASSAY CONTEXT: HEK293T, isoproterenol-stimulated cAMP
MEASUREMENT TYPE: EC50 (nM)
Report as a plain number; the unit nM is understood.

// known answers, use as guide
CPD SMILES: CC(C)Oc1ccccc1N1CCCN(CCCCOc2ccc3ccc(=O)[nH]c3c2)CC1
MEASUREMENT TYPE: EC50
NUMERIC VALUE: 0.1
//
CPD SMILES: Clc1cccc(N2CCN(CCCOc3ccc4cn[nH]c4c3)CC2)c1Cl
MEASUREMENT TYPE: EC50
NUMERIC VALUE: 9.7
//
CPD SMILES: O=C1CCc2ccc(Oc3ccc(CN4CCN(c5cccc(Cl)c5Cl)CC4)cc3)cc2N1
MEASUREMENT TYPE: EC50
NUMERIC VALUE: 5.7
//
CPD SMILES: Clc1cccc(N2CCN(CCCCOc3ccc4cn[nH]c4c3)CC2)c1Cl
MEASUREMENT TYPE: EC50
NUMERIC VALUE: 5.7
//
CPD SMILES: O=C1CCc2ccc(OCCCCN3CCN(c4cccc5c4OCCO5)CC3)nc2N1
MEASUREMENT TYPE: EC50
NUMERIC VALUE: 0.4
//
CPD SMILES: Clc1cccc(N2CCN(CCCOc3ccc4scnc4c3)CC2)c1Cl
MEASUREMENT TYPE: EC50
NUMERIC VALUE: 9.8
//
CPD SMILES: O=c1[nH]c2ccc(OCCCN3CCN(c4cccc(Cl)c4Cl)CC3)cc2[nH]1
MEASUREMENT TYPE: EC50
NUMERIC VALUE: 512
//
CPD SMILES: O=C1NCCc2ccc(OCCCN3CCCN(c4cccc(Cl)c4Cl)CC3)cc21
MEASUREMENT TYPE: EC50
NUMERIC VALUE: 5.6
//
CPD SMILES: CC(C)Oc1ccccc1N1CCCN(CCCCOc2ccc3c(n2)NC(=O)CC3)CC1
MEASUREMENT TYPE: EC50
NUMERIC VALUE: 0.2

In the following, a different compound is considered.
Q. Fill blank: measured EC50 of the compound COc1ccccc1N1CCN(CCCCOc2ccc3c(n2)NC(=O)CC3)CC1 is ____.
A. 11
